biological target: KIT (Homo sapiens, UniProt P10721); construct: made in house; test: Competition binding assay, KIT Kd; settings: competition binding
Sequence (P10721 26-976): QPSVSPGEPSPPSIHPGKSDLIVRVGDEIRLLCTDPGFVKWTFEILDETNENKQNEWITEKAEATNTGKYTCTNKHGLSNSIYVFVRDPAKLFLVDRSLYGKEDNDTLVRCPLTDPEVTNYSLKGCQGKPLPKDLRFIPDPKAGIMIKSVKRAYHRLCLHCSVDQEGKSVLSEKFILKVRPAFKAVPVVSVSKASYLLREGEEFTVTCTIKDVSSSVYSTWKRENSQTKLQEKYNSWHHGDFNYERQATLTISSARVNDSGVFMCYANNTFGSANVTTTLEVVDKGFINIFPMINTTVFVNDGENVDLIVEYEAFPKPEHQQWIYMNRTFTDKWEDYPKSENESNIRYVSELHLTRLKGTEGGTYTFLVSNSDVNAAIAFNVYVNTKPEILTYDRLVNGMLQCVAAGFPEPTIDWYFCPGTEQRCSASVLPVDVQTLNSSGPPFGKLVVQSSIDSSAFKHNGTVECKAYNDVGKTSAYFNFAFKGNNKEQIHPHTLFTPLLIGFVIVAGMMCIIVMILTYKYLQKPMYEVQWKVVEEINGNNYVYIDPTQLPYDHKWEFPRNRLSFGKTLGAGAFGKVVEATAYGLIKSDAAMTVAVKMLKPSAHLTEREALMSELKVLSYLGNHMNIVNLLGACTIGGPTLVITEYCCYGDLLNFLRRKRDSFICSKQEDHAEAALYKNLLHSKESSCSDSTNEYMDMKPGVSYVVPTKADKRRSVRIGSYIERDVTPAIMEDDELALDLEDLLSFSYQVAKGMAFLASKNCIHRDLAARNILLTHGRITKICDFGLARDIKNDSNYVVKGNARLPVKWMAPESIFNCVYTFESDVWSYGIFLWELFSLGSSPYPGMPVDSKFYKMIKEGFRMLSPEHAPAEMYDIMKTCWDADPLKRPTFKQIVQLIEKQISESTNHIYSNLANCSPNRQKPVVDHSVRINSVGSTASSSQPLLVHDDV
Each entry below lists one item and its recorded Kd value.

Example results:
smi: O[C@@H]1CCCC[C@H]1Nc1nc2ccc(Cn3cnc4cc(F)cc(F)c43)cc2s1
tested_target: KIT (Homo sapiens, UniProt P10721)
Kd: ≤ 100 nM
//
smi: O[C@@H]1CCCC[C@H]1Nc1nc2ccc(Cn3cnc4cc(F)cnc43)cc2o1
tested_target: KIT (Homo sapiens, UniProt P10721)
Kd: ≤ 100 nM
//
smi: CC(C)(O)c1cnc2c(c1)ncn2Cc1ccc2nc(N[C@@H]3CCCC[C@H]3O)sc2c1
tested_target: KIT (Homo sapiens, UniProt P10721)
Kd: 100 to 500 nM

Lookup: Can you look up the measured Kd of O[C@@H]1CCCC[C@H]1Nc1nc2c(Cl)cc(Cc3cnc4ccc(N5CCOCC5)nn34)cc2s1 for me?
Found: > 2000 nM

Lookup: Further, for OC[C@H]1CC[C@@H](Nc2nc3ccc(Cn4cnc5cc(F)cnc54)cc3s2)CC1 ?
Found: 100 to 500 nM

Lookup: Further, for COc1ccc2c(c1)ncn2Cc1ccc2nc(N[C@@H]3CCCC[C@H]3O)oc2c1 ?
Found: ≤ 100 nM

Lookup: Further, for O[C@@H]1CCCC[C@H]1Nc1nc2c(F)cc(Cn3cnc4cccnc43)c(F)c2s1 ?
Found: > 2000 nM

Lookup: Further, for O[C@@H]1CCCC[C@H]1Nc1nc2ccc(Cn3cnc4cc(OCCN5CCOCC5)ccc43)cc2s1 ?
Found: ≤ 100 nM
